- target: IMP-1 (Serratia marcescens, UniProt P52699)
- Sequence (P52699 19-246 limits assumed): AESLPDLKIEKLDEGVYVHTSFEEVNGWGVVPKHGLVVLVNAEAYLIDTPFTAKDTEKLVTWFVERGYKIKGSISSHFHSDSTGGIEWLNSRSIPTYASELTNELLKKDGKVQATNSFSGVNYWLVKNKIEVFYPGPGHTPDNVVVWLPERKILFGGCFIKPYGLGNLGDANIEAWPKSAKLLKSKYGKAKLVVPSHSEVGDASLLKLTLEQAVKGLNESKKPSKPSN
pIC50: −log10 of the molar value.
readout: pIC50

State the measured pIC50 (IMP-1 (Serratia marcescens, UniProt P52699)) of O=C(O)C1CCCN1C(=O)c1ccccc1S (stereo not shown) < 3.30

* * *

- target: SPM-1 (Pseudomonas aeruginosa)
- Sequence (Q8G9Q0 entry or part of it): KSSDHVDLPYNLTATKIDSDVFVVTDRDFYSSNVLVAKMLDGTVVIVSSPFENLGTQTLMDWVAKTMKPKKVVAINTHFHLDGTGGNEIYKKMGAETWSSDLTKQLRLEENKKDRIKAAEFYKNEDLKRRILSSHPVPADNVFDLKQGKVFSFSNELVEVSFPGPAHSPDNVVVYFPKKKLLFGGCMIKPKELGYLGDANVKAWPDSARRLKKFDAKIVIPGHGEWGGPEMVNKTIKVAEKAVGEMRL
- procedure.summary: MBL inhibition assay, SPM-1
pIC50: −log10 of the molar value.
readout: pIC50

Determine from records and report pIC50 for O=C(O)C1CCCN1C(=O)c1ccccc1S (stereo not shown) < 3.30

* * *

- target: NDM-1 (Klebsiella pneumoniae, UniProt C7C422)
- Sequence (C7C422 29-270 limits assumed): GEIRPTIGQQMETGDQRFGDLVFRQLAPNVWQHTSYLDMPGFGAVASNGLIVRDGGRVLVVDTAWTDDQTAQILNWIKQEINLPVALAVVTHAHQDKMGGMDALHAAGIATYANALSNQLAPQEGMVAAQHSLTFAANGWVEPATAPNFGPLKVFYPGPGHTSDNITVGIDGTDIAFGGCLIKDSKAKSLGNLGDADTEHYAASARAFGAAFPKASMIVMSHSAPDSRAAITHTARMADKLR
readout: IC50

Determine from records and report IC50 for O=C(O)C1CCCN1C(=O)c1ccccc1S (stereo not shown) > 500 µM

* * *

- target: BcII (Bacillus cereus, UniProt P04190)
- Sequence (P04190 31-257): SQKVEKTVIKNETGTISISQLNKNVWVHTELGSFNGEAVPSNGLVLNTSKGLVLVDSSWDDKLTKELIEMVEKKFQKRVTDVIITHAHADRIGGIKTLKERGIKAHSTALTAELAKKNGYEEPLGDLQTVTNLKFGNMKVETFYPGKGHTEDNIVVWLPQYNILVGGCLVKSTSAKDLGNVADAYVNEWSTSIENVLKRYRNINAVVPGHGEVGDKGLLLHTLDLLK
pIC50: −log10 of the molar value.
readout: pIC50

Determine from records and report pIC50 for O=C(O)C1CCCN1C(=O)c1ccccc1S (stereo not shown) < 3.30

* * *

- target: VIM-2 (Escherichia coli)
readout: IC50

Determine from records and report IC50 for O=C(O)C1CCCN1C(=O)c1ccccc1S [D-MBP] > 500 µM

Reference for the values: paper PMC4704194
